Ref: the supplement of paper PMC9170038

# Tested on: MS2 coat protein
# PROCEDURE_DETAILS: apparent KD of MS2 coat protein; designed switch direction (-1 OFF switch, 1 ON switch): 1; higher = weaker reporter binding
# PARTICULARS: input ligand: microRNA oligo, concentration not stated
Please enter class 1 where apparent KD of MS2 coat protein is greater than or equal to 200 nM, and class 0 where it is lower.

Use these answered entries as a reference point.
- PRIMARY_SEQUENCE: "GGGAGAGCCGCAGGAUAUGGUGAGGAUUACCCACUAGAAGGGUGGACAUGAGAAUCGAACAUGAGGAUCACCCAUGUUCUGAGG (Eterna round: R96, puzzle: Same State NG 1)"
  ASSIGNED_CATEGORY: "class 1"
- PRIMARY_SEQUENCE: "AAAAUAAAUGCGAAAAUUAACCGCAACUGACAUGAGGAUCACCCAUGUGCUUCAAGCUCAGGCAUCUCUUAUCGUCA [Maares] (Eterna round: R96, puzzle: Sensor for hsa-mir-208a)"
  ASSIGNED_CATEGORY: "class 0"
- PRIMARY_SEQUENCE: "UGGCUCAGACGAGGAUAUAUGCGAUCACAUGAGGAUCACCCAUGUCUCGAGCUUCGGCUCGAGGCAUAGAAGGUGUCUGAGCCA [SSNG2/4-C2] (Eterna round: R96, puzzle: Same State NG 2)"
  ASSIGNED_CATEGORY: "class 0"
- PRIMARY_SEQUENCE: "GUGGUCAGACAUGAGGAUCACCCAUGUGGAAUAAAUAAGGUCAAGGAUAUUCAAUAUAGGAUAUAGAAGAAGGUGAGGUUGGUG (Eterna round: R96, puzzle: Same State NG 3)"
  ASSIGNED_CATEGORY: "class 0"
- PRIMARY_SEQUENCE: "AGAUGUUAAUCAGGAUAUGGGCACAUGAGGAUCACCCAUGUAAAUUCGAUACUAUGUGGUCACGUCUAGAAGGGAUGGCUAACA [SameState NG2 #82] (Eterna round: R96, puzzle: Same State NG 2)"
  ASSIGNED_CATEGORY: "class 0"

For this sequence, is measured apparent KD of MS2 coat protein 200 nM or higher? GAGCCAGUCCGAGGAUAUUCAUAUUAACAUGAGGAUCACCCAUGUAGGCUCAGAAAGGAGCCUUGGGAGAAGGCGGACUGGCUC [Xeonanisa<<2] (Eterna round: R96, puzzle: Same State NG 2)
class 0

For this sequence, is measured apparent KD of MS2 coat protein 200 nM or higher? AGAGGAGGAGCAGGAUAUUCGAAGAAGGACGUGGAAGAAGGGUUCAUGCGAUGACAUGAGGAUCACCCAUGUACCGCGCGUUGA [AK SSNG1-V2-14] (Eterna round: R96, puzzle: Same State NG 1)
class 0

For this sequence, is measured apparent KD of MS2 coat protein 200 nM or higher? GAGAGAGGGUGAGGAUAUUUAGUGAUAAUGAUAAAAGAAGGCACAGACAUGAGGAUCACCCAUGUGGGAAUAAUCCAGAGAGAG [Parity 4 - Jieux - Same State NG 1] (Eterna round: R96, puzzle: Same State NG 1)
class 1

For this sequence, is measured apparent KD of MS2 coat protein 200 nM or higher? AUUUUUAAUGCAGGAUAUGAUUAACAUGAGGAUCACCCAUGUGGUGUUGUGAGUAAGGAGAGUGAUCAGAAGGGCAUUUUUUCU [JMF's solution 88] (Eterna round: R96, puzzle: Same State NG 2)
class 1

====

Listing: apparent KD of K4 kissing-loop reporter of selected sequences
# System: K4 kissing-loop RNA reporter
# PROCEDURE_DETAILS: apparent KD of K4 kissing-loop reporter; higher = weaker reporter binding
# PARTICULARS: Eterna round: R107; input ligand: arginine 13.2 mM
Please answer using the number first and the unit second.

In the examples that follow, each entry is paired with its recorded apparent KD of K4 kissing-loop reporter.
- PRIMARY_SEQUENCE: "CGUUUAGUGAUGUUAAGCGUCCACUACGAUACCAGAACUAUAACCUUCCCUUGGCAGCGUUUAUAUUGUAACUCAUGUGUUAAUU [theeternabot_exclusion_KL_Theo_A_11]"
  apparent KD of K4 kissing-loop reporter: "0.296 µM"
- PRIMARY_SEQUENCE: "UGAGUGAUGUUCAAGGACUAGAUCUAAAUAAAGGAUAUAGCAUACGCUAGAAGGUUAAAAUUUCUGGAUCCCAGUUUAAACCUUU [theeternabot_sameState_KL_FMN_A_49]"
  apparent KD of K4 kissing-loop reporter: "0.154 µM"

Please find the next sequence below.
Entry UUUAUAUAGUCGGCCGCCACUGAUUUUUAUAUAUGUUUAUGUUUAUACGAGUGAUGUUCGUUAUUCAGGACCGGGACUUUUGUUA [JR_SSTryptoB_Sub016] has what apparent KD of K4 kissing-loop reporter?
0.133 µM

====

Listing: apparent KD of K4 kissing-loop reporter of selected sequences
# Tested on: K4 kissing-loop RNA reporter
# PROCEDURE_DETAILS: apparent KD of K4 kissing-loop reporter; higher = weaker reporter binding
# PARTICULARS: Eterna round: R107; input ligand: FMN 200 uM
Value expressed in µM; do not type the unit.

In the examples that follow, each entry is paired with its recorded apparent KD of K4 kissing-loop reporter.
- PRIMARY_SEQUENCE: "CGCGUGGGUUUGAGAGGGUUUGCGCGAAGUGAGGAUAUUUAGGGAGAAAGAAGGCACUAUAAAAUAUAGUGAUGUUAUAUAAGGG [SSFMNA.J]"
  UNITS: "µM"
  apparent KD of K4 kissing-loop reporter: 0.877
- PRIMARY_SEQUENCE: "GCCGUAGAUGGAAGGAGCGUGUCCAAACCUCAUUCAUGUACACACGAGUGAUGUUCGUGUACACAGGUAGGUCGCCAUCUACGGC"
  UNITS: "µM"
  apparent KD of K4 kissing-loop reporter: 0.413
- PRIMARY_SEQUENCE: "UGCACGGGCUCGGCCGCCACUCCCGCGGGUCGGAAGGUCCGCUACUGAGUGAUGUUCGGUUGGAGGAGGACCGGGAGCCCGUGCA [#2 Exclusion - Tryptophan B Attempt #26 (HarryS)]"
  UNITS: "µM"
  apparent KD of K4 kissing-loop reporter: 0.135

Entry GGUGGACUAGUCGAGUGAUGUUCGAGGCAUCGAGGACCGGUACGGCCGCCACUCGCAAAUCUACCGUGCGUUAACCACCAAAGUG [theeternabot_sameState_KL_Trp_A_37] has what apparent KD of K4 kissing-loop reporter?
0.295

Entry AAAUAAAGCAGUCACCCAGUGAUGUUGGAAGGAGCGUGCGAAAGCACAGGUAGGUCGCCGAUAAAGGACAAAGUCCGUGGCUGCA [#SwitchBubble 29 #K4Early] has what apparent KD of K4 kissing-loop reporter?
0.275

====

# Tested on: K4 kissing-loop RNA reporter;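 further: bound reporter read as fluorescence of individual clusters on recovered sequencing chips by microscopy, with normalized cluster intensities fitted with a binding model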
# PROCEDURE_DETAILS: apparent KD of K4 kissing-loop reporter; higher = weaker reporter binding
# PARTICULARS: Eterna round: R107; input ligand: arginine 13.2 mM
Listing: apparent KD of K4 kissing-loop reporter of selected sequences
Value expressed in nM; do not type the unit.

In the examples that follow, each entry is paired with its recorded apparent KD of K4 kissing-loop reporter.
- PRIMARY_SEQUENCE: "AGUCCACUCUAAAGAGUGGACCUAAGGGAUACCAGUGAUGUUGGUCACCCUUGGCAGCCCAGGGCCCGGGAUAAACCCGGGCCCA [#09 K4 Theophylline A Exclusion]"
  apparent KD of K4 kissing-loop reporter / nM: 100
- PRIMARY_SEQUENCE: "AGUGAUGUAUGGCGGUUUGUCACUUAUUAUCAGGAUAUAUAAACAAAUAGAAGGGAUGGCGGAGUGAUGUUCCGCCGGCCGCCAU [FMN A Exl V5]"
  apparent KD of K4 kissing-loop reporter / nM: 140
- PRIMARY_SEQUENCE: "CAGGCCGAGUGAUGUUCGGUCUGAGUGAUAAAGGAUAUAAGGGAUUUUAGAAGGUUAUCUAAACAGACCAAACAUCUAUCCACUC [theeternabot_exclusion_KL_FMN_A_16]"
  apparent KD of K4 kissing-loop reporter / nM: 128
- PRIMARY_SEQUENCE: "AGGGAUGUUAAAGGAUAUAGAAAGUGAUGUUAGAAAGUGAGUGAUGUUGAUGUUAGUGAUGUUAUGUUAGAAGGUUAACAAAACG [a]"
  apparent KD of K4 kissing-loop reporter / nM: 149
- PRIMARY_SEQUENCE: "CAGCAGAGUGAUGUUCUGCUUACUGCGGAUACCAGCUUUGCCAGAGGCCCUUGGCAGCCGCACGGCUCAGUGAUGUUGGGUCACG [Same State Theophylline A GF 13]"
  apparent KD of K4 kissing-loop reporter / nM: 293

Please find the next sequence below.
Entry GGUUCGAGUGAUGUUCGGGUCGAUUGGGAAGGAGCGCCCGGAAGGGCAGGUAGGUCGCCCGGGCCGCGCGGGAAACCGCGCGUCC [#2 Same State - Arginine A Attempt #7 (HarryS)] has what apparent KD of K4 kissing-loop reporter?
121
